- Tested on: BALB/c female mice
- experiment_notes: Acute toxicity analysis of lipid molecules (cationic lipid LNP) in BALB/c female mice
- applied_conditions: low dose group, 50 μg/pc; blood 24 h after injection; Ave(SD)
Assign Aspartate aminotransferase to each entry below.
Put down the number, then write its unit next to it.

INPUT: Aspartate aminotransferase for CCCCCCCCCCCOC(=O)CCCCCN(CCCCCCCC(=O)OC(CCCCCCCC)CCCCCCCC)C(C)CCO (stereo not drawn) ?
OUTPUT: 107.55 U/L

INPUT: `CCCCCCCCCCCOC(=O)CCCCCN(CCCCCCCCCCCCO)CCCCCCCC(=O)OC(CCCCCCCC)CCCCCCCC` , same question.
OUTPUT: 109.54 U/L

INPUT: `CCCCCCCCCCCOC(=O)CCCCCN(CCCCCCCC(=O)OC(CCCCCCCC)CCCCCCCC)CC1(O)CC1` , same question.
OUTPUT: 110.27 U/L

INPUT: `CCCCCCCCCCCOC(=O)CCCCCN(CCCCCCO)CCCCCCCC(=O)OC(CCCCCCCC)CCCCCCCC` , same question.
OUTPUT: 111.74 U/L

INPUT: CCCCCCCCCCCOC(=O)CCCCCN(CCO)CCCCCCCC(=O)OC(CCCCCCCC)CCCCCCCC [SM102, reference compound] , same question.
OUTPUT: 121.4 U/L

INPUT: `CCCCCCCCCCCOC(=O)CCCCCN(CCCCCO)CCCCCCCC(=O)OC(CCCCCCCC)CCCCCCCC` , same question.
OUTPUT: 109.92 U/L

---

- Tested on: BALB/c female mice
- experiment_notes: Acute toxicity analysis of lipid molecules (cationic lipid LNP) in BALB/c female mice
- applied_conditions: low dose group, 50 μg/pc; blood 24 h after injection; Ave(SD)
metric_name: Alanine aminotransferase

INPUT: Alanine aminotransferase for CCCCCCCCCCCOC(=O)CCCCCN(CCO)CCCCCCCC(=O)OC(CCCCCCCC)CCCCCCCC [SM102, reference compound] ?
OUTPUT: 36.04 (2.93) U/L

INPUT: CCCCCCCCCCCOC(=O)CCCCCN(CCCCCCO)CCCCCCCC(=O)OC(CCCCCCCC)CCCCCCCC [Example 2] , same question.
OUTPUT: 35.32 (2.51) U/L

INPUT: CCCCCCCCCCCOC(=O)CCCCCN(CCCCCCCC(=O)OC(CCCCCCCC)CCCCCCCC)CC1(O)CC1 [Example 13] , same question.
OUTPUT: 36.19 (3.01) U/L

INPUT: CCCCCCCCCCCOC(=O)CCCCCN(CCCCCCCCCCCCO)CCCCCCCC(=O)OC(CCCCCCCC)CCCCCCCC [Example 7] , same question.
OUTPUT: 33.56 (5.17) U/L

INPUT: CCCCCCCCCCCOC(=O)CCCCCN(CCCCCCCC(=O)OC(CCCCCCCC)CCCCCCCC)C(C)CCO (stereo not drawn) [Example 9] , same question.
OUTPUT: 35.44 (3.67) U/L

INPUT: CCCCCCCCCCCOC(=O)CCCCCN(CCCCCO)CCCCCCCC(=O)OC(CCCCCCCC)CCCCCCCC [Example 1] , same question.
OUTPUT: 33.46 (3.54) U/L

---

- Tested on: BALB/c female mice
- experiment_notes: Acute toxicity analysis of lipid molecules (cationic lipid LNP) in BALB/c female mice
- applied_conditions: high dose group, 150 μg LNP/pc; blood 24 h after injection; Ave(SD)
Assign γ-Glutamyltransferase (GGT) to each entry below.

INPUT: γ-Glutamyltransferase (GGT) for CCCCCCCCCCCOC(=O)CCCCCN(CCCCCCCC(=O)OC(CCCCCCCC)CCCCCCCC)C(C)CCO (stereo not drawn) ?
OUTPUT: 0.18 (0.15) U/L

INPUT: `CCCCCCCCCCCOC(=O)CCCCCN(CCCCCCCC(=O)OC(CCCCCCCC)CCCCCCCC)CC1(O)CC1` , same question.
OUTPUT: 0.18 (0.18) U/L

INPUT: `CCCCCCCCCCCOC(=O)CCCCCN(CCCCCCCCCCCCO)CCCCCCCC(=O)OC(CCCCCCCC)CCCCCCCC` , same question.
OUTPUT: 0.22 (0.04) U/L

INPUT: `CCCCCCCCCCCOC(=O)CCCCCN(CCCCCCO)CCCCCCCC(=O)OC(CCCCCCCC)CCCCCCCC` , same question.
OUTPUT: 0.20 (0.18) U/L

INPUT: CCCCCCCCCCCOC(=O)CCCCCN(CCO)CCCCCCCC(=O)OC(CCCCCCCC)CCCCCCCC [SM102, reference compound] , same question.
OUTPUT: 0.32 (0.22) U/L

INPUT: `CCCCCCCCCCCOC(=O)CCCCCN(CCCCCO)CCCCCCCC(=O)OC(CCCCCCCC)CCCCCCCC` , same question.
OUTPUT: 0.12 (0.12) U/L

---

- System: BALB/c female mice
- experiment_notes: Acute toxicity analysis of lipid molecules (cationic lipid LNP) in BALB/c female mice
- applied_conditions: low dose group, 50 μg/pc; blood 24 h after injection; Ave(SD)
Assign Creatinine to each entry below.
State the answer as a number, implicitly in µmol/L.

INPUT: Creatinine for CCCCCCCCCCCOC(=O)CCCCCN(CCCCCCCC(=O)OC(CCCCCCCC)CCCCCCCC)C(C)CCO (stereo not drawn) [Example 9] ?
OUTPUT: 14.2

INPUT: CCCCCCCCCCCOC(=O)CCCCCN(CCCCCCO)CCCCCCCC(=O)OC(CCCCCCCC)CCCCCCCC [Example 2] , same question.
OUTPUT: 12.6

INPUT: CCCCCCCCCCCOC(=O)CCCCCN(CCCCCO)CCCCCCCC(=O)OC(CCCCCCCC)CCCCCCCC [Example 1] , same question.
OUTPUT: 13.8

INPUT: CCCCCCCCCCCOC(=O)CCCCCN(CCCCCCCC(=O)OC(CCCCCCCC)CCCCCCCC)CC1(O)CC1 [Example 13] , same question.
OUTPUT: 13.5

INPUT: CCCCCCCCCCCOC(=O)CCCCCN(CCCCCCCCCCCCO)CCCCCCCC(=O)OC(CCCCCCCC)CCCCCCCC [Example 7] , same question.
OUTPUT: 13.6

INPUT: CCCCCCCCCCCOC(=O)CCCCCN(CCO)CCCCCCCC(=O)OC(CCCCCCCC)CCCCCCCC [SM102, reference compound] , same question.
OUTPUT: 14.6

---

Assign Total bilirubin (TBIL) to each entry below.
- System: BALB/c female mice
- experiment_notes: Acute toxicity analysis of lipid molecules (cationic lipid LNP) in BALB/c female mice
- applied_conditions: high dose group, 150 μg LNP/pc; blood 24 h after injection; Ave(SD)
# answer = number (no unit)

INPUT: Total bilirubin (TBIL) for CCCCCCCCCCCOC(=O)CCCCCN(CCCCCCCC(=O)OC(CCCCCCCC)CCCCCCCC)CC1(O)CC1 [Example 13] ?
OUTPUT: 1.34

INPUT: CCCCCCCCCCCOC(=O)CCCCCN(CCCCCCCCCCCCO)CCCCCCCC(=O)OC(CCCCCCCC)CCCCCCCC [Example 7] , same question.
OUTPUT: 1.35

INPUT: CCCCCCCCCCCOC(=O)CCCCCN(CCCCCCO)CCCCCCCC(=O)OC(CCCCCCCC)CCCCCCCC [Example 2] , same question.
OUTPUT: 1.25

INPUT: CCCCCCCCCCCOC(=O)CCCCCN(CCCCCCCC(=O)OC(CCCCCCCC)CCCCCCCC)C(C)CCO (centres unmarked) [Example 9] , same question.
OUTPUT: 1.43

INPUT: CCCCCCCCCCCOC(=O)CCCCCN(CCCCCO)CCCCCCCC(=O)OC(CCCCCCCC)CCCCCCCC [Example 1] , same question.
OUTPUT: 1.56

---

- Tested on: BALB/c female mice
- experiment_notes: Acute toxicity analysis of lipid molecules (cationic lipid LNP) in BALB/c female mice
- applied_conditions: high dose group, 150 μg LNP/pc; blood 24 h after injection; Ave(SD)
metric_name: Aspartate aminotransferase (U/L)
State the answer as a number, implicitly in U/L.

INPUT: Aspartate aminotransferase for `CCCCCCCCCCCOC(=O)CCCCCN(CCCCCO)CCCCCCCC(=O)OC(CCCCCCCC)CCCCCCCC` ?
OUTPUT: 125.26

INPUT: CCCCCCCCCCCOC(=O)CCCCCN(CCCCCCCC(=O)OC(CCCCCCCC)CCCCCCCC)C(C)CCO (stereo not drawn) , same question.
OUTPUT: 128.26

INPUT: CCCCCCCCCCCOC(=O)CCCCCN(CCO)CCCCCCCC(=O)OC(CCCCCCCC)CCCCCCCC [SM102, reference compound] , same question.
OUTPUT: 145.96

INPUT: `CCCCCCCCCCCOC(=O)CCCCCN(CCCCCCCCCCCCO)CCCCCCCC(=O)OC(CCCCCCCC)CCCCCCCC` , same question.
OUTPUT: 138.44

INPUT: `CCCCCCCCCCCOC(=O)CCCCCN(CCCCCCCC(=O)OC(CCCCCCCC)CCCCCCCC)CC1(O)CC1` , same question.
OUTPUT: 126.77

INPUT: `CCCCCCCCCCCOC(=O)CCCCCN(CCCCCCO)CCCCCCCC(=O)OC(CCCCCCCC)CCCCCCCC` , same question.
OUTPUT: 124.48
